Measured viability, T/C, listed per entry for reference.
- Test system: 993429-296-R-J1-PDC complex spheroid growth, percent test/control
- test_description: Anticancer human tumor 993429-296-R-J1-PDC patient-derived uterine sarcoma cell line growth inhibition [Asc]
- run_conditions: second compound 0.03 µM; first compound 0.316 µM; stronger effect = lower value
Lab book: enter the figure in %, no units written.

Solved cases below.
compound: COc1c(OCCCN2CCOCC2)ccc2c3n(c(=NC(=O)c4cnc(N)nc4)nc12)CCN3 + CCN1C(C(=O)NC23CCC(C(=O)O)(CC2)CC3)C(c2cccc(Cl)c2F)C2(C(=O)Nc3cc(Cl)ccc32)C12CCCCC2
assayed_target: 993429-296-R-J1-PDC complex spheroid growth, percent test/control
viability, T/C (%): 4.17

compound: C#Cc1c(F)ccc2cc(O)cc(-c3ncc4c(N5CC6CCC(C5)N6)nc(OCC56CCCN5CC(F)C6)nc4c3F)c12 (stereo not given) + CCN1C(C(=O)NC23CCC(C(=O)O)(CC2)CC3)C(c2cccc(Cl)c2F)C2(C(=O)Nc3cc(Cl)ccc32)C12CCCCC2
assayed_target: 993429-296-R-J1-PDC complex spheroid growth, percent test/control
viability, T/C (%): 106

compound: O=C(c1ccc(F)c(F)c1Nc1ccc(I)cc1F)N1CC(O)([C@@H]2CCCCN2)C1 + CCN1C(C(=O)NC23CCC(C(=O)O)(CC2)CC3)C(c2cccc(Cl)c2F)C2(C(=O)Nc3cc(Cl)ccc32)C12CCCCC2
assayed_target: 993429-296-R-J1-PDC complex spheroid growth, percent test/control
viability, T/C (%): 8.47

compound: CCN1CCN(Cc2ccc(Nc3ncc(F)c(-c4cc(F)c5nc(C)n(C(C)C)c5c4)n3)nc2)CC1 + CCN1C(C(=O)NC23CCC(C(=O)O)(CC2)CC3)C(c2cccc(Cl)c2F)C2(C(=O)Nc3cc(Cl)ccc32)C12CCCCC2
assayed_target: 993429-296-R-J1-PDC complex spheroid growth, percent test/control
viability, T/C (%): 103

Query: Name the reported viability, T/C value associated with the compound O=C(c1cc(Cc2n[nH]c(=O)c3ccccc23)ccc1F)N1CCN(C(=O)C2CC2)CC1 + CCN1C(C(=O)NC23CCC(C(=O)O)(CC2)CC3)C(c2cccc(Cl)c2F)C2(C(=O)Nc3cc(Cl)ccc32)C12CCCCC2
Result: 98

====

Measured IC50, listed per entry for reference.
- System: 993429-296-R-J1-PDC complex spheroid growth, percent test/control
- test_description: Anticancer human tumor 993429-296-R-J1-PDC cell line growth inhibition [Asc];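 note: spheroids exposed to compounds for seven days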
- run_conditions: curve of first compound; second compound 1 µM
Lab book: enter the figure in nM, no units written.

Solved cases below.
compound: Cc1nc(N2CCC3(CC2)COC(C)C3N)c(CO)nc1Sc1ccnc(N)c1Cl (stereo unspecified) + CNC(C)C(=O)NC1CN(S(=O)(=O)c2cccc(S(=O)(=O)N3CCC4CCC(C(=O)NC(c5ccccc5)c5ccccc5)N4C(=O)C(NC(=O)C(C)NC)C3)c2)CCC2CCC(C(=O)NC(c3ccccc3)c3ccccc3)N2C1=O
IC50 [nM]: 107

compound: COc1c(OCCCN2CCOCC2)ccc2c3n(c(=NC(=O)c4cnc(N)nc4)nc12)CCN3 + CNC(C)C(=O)NC1CN(S(=O)(=O)c2cccc(S(=O)(=O)N3CCC4CCC(C(=O)NC(c5ccccc5)c5ccccc5)N4C(=O)C(NC(=O)C(C)NC)C3)c2)CCC2CCC(C(=O)NC(c3ccccc3)c3ccccc3)N2C1=O
IC50 [nM]: 4.09

compound: COc1c(OCCCN2CCOCC2)ccc2c3n(c(=NC(=O)c4cnc(N)nc4)nc12)CCN3 + Cc1c(S(C)(=O)=O)c(-c2cc(F)cc(N3CCN(c4ccc(NS(=O)(=O)c5ccc(NC(CCN6CCC(C(=O)OCCCP(=O)(O)O)CC6)CSc6ccccc6)c(S(=O)(=O)C(F)(F)F)c5)cc4)CC3)c2)c(-c2ccc(Cl)cc2)n1C(C)C
IC50 [nM]: 4.23

// switching to the query compound
Query: Write down the reported IC50 of CCN1CCN(Cc2ccc(Nc3ncc(F)c(-c4cc(F)c5nc(C)n(C(C)C)c5c4)n3)nc2)CC1 + Cc1c(S(C)(=O)=O)c(-c2cc(F)cc(N3CCN(c4ccc(NS(=O)(=O)c5ccc(NC(CCN6CCC(C(=O)OCCCP(=O)(O)O)CC6)CSc6ccccc6)c(S(=O)(=O)C(F)(F)F)c5)cc4)CC3)c2)c(-c2ccc(Cl)cc2)n1C(C)C , test system: 993429-296-R-J1-PDC complex spheroid growth, percent test/control.
Result: 344
